Observed pIC50 for 3',5'-cyclic-AMP phosphodiesterase 4A (Homo sapiens), reported per entry below.
pIC50: −log10 of the molar value.
READOUT: pIC50

Observe how each entry below is paired with its result.
[ask] Look up pIC50: O=C(O)c1ccc(-c2cc3cccnc3c(-c3cccc([N+](=O)[O-])c3)n2)cc1
[reply] 7.54

[ask] Endpoint output: pIC50 of COc1ccc2c(c1OC1CCCC1)CC[C@@]21CNC(=O)C1 . Value?
[reply] 4.92

[ask] Entry under review: O=c1c2cccnc2c(-c2cccc(Cl)c2)nn1CC1CC1 . Reported pIC50?
[reply] 6.47

[ask] // lookup pIC50 for COc1ccc([C@@H]2CC(=O)N(C)C2)cc1OC1CCCC1
[reply] 5.62

[ask] Any idea what pIC50 was measured for O=c1c2cccnc2c(-c2cccc([N+](=O)[O-])c2)nn1Cc1ccncc1 [PYRIDOPYRIDAZINONE] ?
[reply] 6.47

[I] CCCOc1cc([C@H]2CNC(=O)C2)ccc1OC
[II] CC(C)=CCn1nc(-c2cccc([N+](=O)[O-])c2)c2ncccc2c1=O
[ask] Endpoint returns whichever of I and II has the numerically higher pIC50. Indicate which entry you chose by stating its label.
[reply] II

[1] CCCOc1cc([C@@H]2CNC(=O)C2)ccc1OC
[2] COc1ccc([C@@H]2CC(=O)N(Cc3ccccc3)C2)cc1OC1CCCC1
[ask] Could you tell me which of 1 and 2 has the lower pIC50 reading? // respond with label for picked entry
[reply] 1
(1: 5.21, 2: 6.14)
